TESTED TARGET: T1, whole KDR-ECD (Cat. # 676490, Calbiochem) (human, UniProt P35968 20-764)
T1 construct: extracellular domain; Bought soluble protein; also called soluble KDR; VEGF Receptor 2 D1-7
T1 sequence (P35968 20-764): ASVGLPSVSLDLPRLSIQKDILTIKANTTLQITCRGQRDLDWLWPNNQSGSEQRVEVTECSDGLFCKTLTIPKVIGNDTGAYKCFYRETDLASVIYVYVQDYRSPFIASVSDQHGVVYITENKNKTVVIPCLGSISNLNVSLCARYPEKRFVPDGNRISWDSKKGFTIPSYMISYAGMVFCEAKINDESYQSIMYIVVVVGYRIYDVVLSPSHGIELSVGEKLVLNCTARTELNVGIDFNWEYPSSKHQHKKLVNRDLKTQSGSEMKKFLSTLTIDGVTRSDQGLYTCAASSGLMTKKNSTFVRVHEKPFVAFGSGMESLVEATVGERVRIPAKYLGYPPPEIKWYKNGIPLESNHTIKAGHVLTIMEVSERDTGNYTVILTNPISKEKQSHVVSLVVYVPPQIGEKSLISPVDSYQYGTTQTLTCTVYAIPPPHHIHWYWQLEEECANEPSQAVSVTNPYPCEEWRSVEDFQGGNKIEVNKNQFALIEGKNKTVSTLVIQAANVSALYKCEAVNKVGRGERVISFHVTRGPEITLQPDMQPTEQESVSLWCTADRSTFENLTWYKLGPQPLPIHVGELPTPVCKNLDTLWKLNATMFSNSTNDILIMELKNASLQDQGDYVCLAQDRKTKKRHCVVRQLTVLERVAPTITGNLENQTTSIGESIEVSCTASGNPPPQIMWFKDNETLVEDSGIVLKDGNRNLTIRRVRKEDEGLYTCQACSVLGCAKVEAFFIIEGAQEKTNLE
PROTOCOL TEXT: ELISA, KDR-ECD coat 5 ug/mL, antibody 1 ug/mL
VALUE TYPE: ELISA reading
Numbers only.

Check out these entries, answers already filled in.
INSERT INTO assay_data (binder, recorded_number) VALUES
  ('24B3 (antibody, V domains shown, Fully human monoclonal antibody from a XenoMouse hybridoma (IgG2 or IgG4 strain), purified) VH: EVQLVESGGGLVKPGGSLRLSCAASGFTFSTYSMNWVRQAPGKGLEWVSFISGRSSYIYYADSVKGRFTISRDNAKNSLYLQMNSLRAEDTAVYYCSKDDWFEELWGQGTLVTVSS VL: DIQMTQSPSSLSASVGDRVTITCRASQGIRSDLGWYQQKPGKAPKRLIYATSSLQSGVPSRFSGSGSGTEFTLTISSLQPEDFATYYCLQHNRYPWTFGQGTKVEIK', 3.02),
  ('27A3 (antibody, V domains shown, Fully human monoclonal antibody from a XenoMouse hybridoma (IgG2 or IgG4 strain), purified) VH: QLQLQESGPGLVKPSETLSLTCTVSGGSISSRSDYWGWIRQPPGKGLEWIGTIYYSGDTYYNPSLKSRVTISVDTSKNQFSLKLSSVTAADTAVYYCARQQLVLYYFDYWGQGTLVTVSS VL: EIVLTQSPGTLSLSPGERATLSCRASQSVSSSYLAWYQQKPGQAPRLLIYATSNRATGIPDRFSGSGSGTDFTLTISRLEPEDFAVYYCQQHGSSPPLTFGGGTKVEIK', 1.97);

Now for another entry.
Prompt: What value of ELISA reading has been reported for the following binder? 33B1 (antibody, V domains shown, Fully human monoclonal antibody from a XenoMouse hybridoma (IgG2 or IgG4 strain), purified) VH: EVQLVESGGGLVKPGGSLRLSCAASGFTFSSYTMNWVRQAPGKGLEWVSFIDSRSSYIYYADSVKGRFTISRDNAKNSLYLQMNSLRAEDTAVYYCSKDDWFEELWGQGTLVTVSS VL: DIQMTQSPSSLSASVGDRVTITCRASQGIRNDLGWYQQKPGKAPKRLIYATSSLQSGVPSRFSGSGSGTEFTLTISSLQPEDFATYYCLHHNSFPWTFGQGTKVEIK
Completion: 1.99
